Attribution: patent US9790169B2

Exercise: for every item that follows, state its recorded pIC50.
- target_or_test_system: UniProt P14902
- assay_method_text: Assessment of human IDO-1 inhibitory activity in Hela cells (Interferon-gamma stimulated HeLa cells, Ehrlich reagent, absorbance 490 nm)
- Type: cell-based
- Set-up: endogenous in cells; host or cells: HeLa cells stimulated with interferon-gamma
- experimental_setup: Hela Human IDO-1 cellular assay
pIC50: −log10 of the molar value.

CCC(CC(=O)O)c1cc(Nc2cnc(OCC3CC3)nc2)c(N(CC)C2CCOCC2)cc1F (single isomer, unassigned) [Example 858]
> 8.30
CC(CC(=O)O)c1ccc(N2C[C@@H](C)O[C@@H](C)C2)c(NC(=O)Nc2ccc(C#N)cc2)c1 (single isomer, unassigned) [Example 750]
< 7.30
CCN(c1ccc([C@@H](COC)CC(=O)O)cc1Nc1ccc(C(N)=O)cc1)C1CCOCC1 (single isomer, unassigned) [Example 385]
< 7.30
COCC(CC(=O)O)c1ccc(N2CCOC(C)(C)C2)c(NC(=O)Nc2ccc(Cl)cc2F)c1 (single isomer, unassigned) [Example 1318 E1]
< 7.30
CCN(c1ccc([C@@H](COC)CC(=O)O)cc1NC(=O)Nc1ccc(F)cc1F)C1CCOCC1 (single isomer, unassigned) [Example 431]
< 7.30
COCC(CC(=O)O)c1ccc(N2CCC(c3ccccc3)CC2)c(Nc2ccc(C#N)cc2)c1 (single isomer, unassigned) [Example 1350 E1]
> 8.30
CCN(c1ccc(C(CC)(CC)CC(=O)O)cc1Nc1cnc(OC)nc1)C1CCOCC1 [Example 28]
> 7.30
COCC(CC(=O)O)c1ccc(N(C)C2CCOCC2)c(Nc2ccc(C#N)cn2)c1 (single isomer, unassigned) [Example 881]
< 7.30
CCC(CC(=O)O)c1ccc(N2CCOCC2)c(NC(=O)Nc2ccc(C)cc2)c1 (single isomer, unassigned) [Example 8 Enantiomer 2]
> 7.30
CCN(c1ccc([C@@H](COC)CC(=O)O)cc1Nc1ccc(F)cc1F)C1CCOCC1 (single isomer, unassigned) [Example 365]
> 7.30

For every item below, please supply its pIC50.
1. CCN(c1ccc([C@@H](CC(=O)O)C(F)(F)F)cc1Nc1cnc(OC)nc1)C1CCOCC1 (single isomer, unassigned) [Example 601]
2. CCC1COCCN1c1ccc([C@H](COC)CC(=O)O)cc1Nc1ccc(C#N)cc1 (single isomer, unassigned) [Example 1287]
3. CCCN(c1ccc([C@H](CC)CC(=O)O)cc1Nc1ccc2c(c1)OC(F)(F)O2)C1CCOCC1 (single isomer, unassigned) [Example 550]
4. CCN(c1cc(F)c(C(COC)CC(=O)O)cc1Nc1ccc(C#N)c(F)c1)C1CCOCC1 (single isomer, unassigned) [Example 846]
5. COCC(CC(=O)O)c1ccc(N2CCOC[C@H]2C(C)C)c(Nc2ccc(Cl)cc2)c1 (single isomer, unassigned) [Example 910]

> 8.30
< 7.30
> 8.30
> 8.30
> 7.30

----------
- target_or_test_system: human IDO1 (Homo sapiens, UniProt P14902)
- Sequence (P14902 whole entry): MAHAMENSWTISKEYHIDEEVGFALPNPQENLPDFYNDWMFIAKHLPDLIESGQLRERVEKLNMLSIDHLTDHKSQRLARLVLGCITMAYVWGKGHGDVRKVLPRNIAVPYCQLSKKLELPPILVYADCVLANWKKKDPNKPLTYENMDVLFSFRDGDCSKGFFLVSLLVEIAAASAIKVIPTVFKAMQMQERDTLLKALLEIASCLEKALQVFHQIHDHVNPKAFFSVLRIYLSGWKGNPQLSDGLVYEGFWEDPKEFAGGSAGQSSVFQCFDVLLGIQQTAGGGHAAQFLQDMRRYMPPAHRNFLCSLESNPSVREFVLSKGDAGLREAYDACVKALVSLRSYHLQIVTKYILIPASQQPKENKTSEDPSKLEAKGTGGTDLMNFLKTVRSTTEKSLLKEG
- assay_method_text: Assessment of human IDO-1 inhibitory activity in HEK cells (human IDO1/HEK293 cells, kynurenine read-out with Ehrlich reagent, absorbance 490 nm)
- Type: cell-based
- Design: expressed in transfected cells
- experimental_setup: HEK Human IDO-1 cellular assay
- Experimental: Exemplary compounds were tested for inhibition of IDO activity. Assessment of Human IDO-1 Inhibitory Activity in HEK Cells HEK293 cells were transfected with a pCDNA-based mammalian expression vector harboring human IDO1 cDNA (NM 002164.2) by electroporation. […] The compound treatments were stopped by adding trichloroacetic acid (Sigma-Aldrich) to a final concentration at 0.2%. […] The absorbance at 490 nm was measured on Envision plate reader. […]
metric_name: IC50

Worked cases, IC50 given:
COCC(CC(=O)O)c1cc(F)c(N(CC(C)C)CC(C)C)c(NC(=O)Cc2ccc(Cl)cc2F)c1 (single isomer, unassigned)
< 5 nM
CC(C)CN(c1ccc(C(C)CC(=O)O)cc1Nc1nc2ccccc2o1)C1CCOCC1 (single isomer, unassigned) [Example 968]
< 50 nM

Alright, here's another compound for you.
Give recorded IC50 with human IDO1 (Homo sapiens, UniProt P14902) for the following compound: COCC(CC(=O)O)c1ccc(N(CC(C)C)C2CCCCC2)c(NC(=O)Nc2ccccc2F)c1 (single isomer, unassigned) [1125 E2]
< 5 nM

----------
- target_or_test_system: human IDO1 (Homo sapiens)
- assay_method_text: Assessment of human IDO-1 inhibitory activity in HEK cells (human IDO1/HEK293 cells, kynurenine read-out with Ehrlich reagent, absorbance 490 nm)
- Type: cell-based
- Design: expressed in transfected cells
- experimental_setup: HEK Human IDO-1 cellular assay
pIC50: −log10 of the molar value.
Exercise: for every item that follows, state its recorded pIC50.

CCN(c1ccc([C@H](COC)CC(=O)O)cc1NC(=O)Nc1ccc(OC)nc1)C1CCOCC1 (single isomer, unassigned)
< 7.30
CCC(CC(=O)O)c1ccc(N2CCOC[C@H]2C(C)C)c(Nc2ccc(C#N)cc2)c1 (single isomer, unassigned)
> 8.30
CC[C@@H](CC(=O)O)c1ccc(N(CC(C)C)C2CCS(=O)(=O)CC2)c(NC(=O)Nc2ccc(OC)cc2F)c1 (single isomer, unassigned)
< 7.30

For every item below, please supply its pIC50.
1. Cc1ccc(CC(=O)Nc2cc(C(CC(=O)O)C(C)C)ccc2N(CC(C)C)CC(C)C)cc1 (racemic)
2. CC[C@@H](CC(=O)O)c1ccc(N(CC(C)(C)O)C2CCOCC2)c(Nc2ccc(Cl)cc2)c1 (single isomer, unassigned)
3. CCOc1ncc(Nc2cc(C(C)(C)CC(=O)O)ccc2N(CC)C2CCOCC2)cn1
4. CCN(c1ccc([C@@H](COC)CC(=O)O)cc1NC(=O)Nc1ccc(OC)nc1)C1CCOCC1 (single isomer, unassigned)

1. > 8.30
2. > 8.30
3. > 7.30
4. < 7.30

----------
- target_or_test_system: UniProt:P14902
- assay_method_text: Assessment of human IDO-1 inhibitory activity in HEK cells (human IDO1/HEK293 cells, kynurenine read-out with Ehrlich reagent, absorbance 490 nm)
- Type: cell-based
- Set-up: expressed in transfected cells
- experimental_setup: HEK Human IDO-1 cellular assay
pIC50: −log10 of the molar value.
Exercise: for every item that follows, state its recorded pIC50.

Worked cases, pIC50 given:
COCC(CC(=O)O)c1cc(F)c(N(CC(C)C)C2CCCCC2)c(NC(=O)Cc2cc(C)on2)c1 (single isomer, unassigned) [Example 1169]
< 7.30
CCN(c1ccc([C@H](COC)CC(=O)O)cc1NC(=O)Nc1cc(C)on1)C1CCOCC1 (single isomer, unassigned) [Example 439]
< 7.30
COCC(CC(=O)O)c1ccc(N(CC(C)C)CC(C)C)c(NC(=O)Nc2cncnc2)c1 (racemic) [Example 996]
< 7.30

For every item below, please supply its pIC50.
1. CCC(CC(=O)O)c1ccc(N(CC(C)C)C2CCCCC2)c(Nc2ccc(Cl)c(OCC(F)(F)F)c2)c1 (single isomer, unassigned) [Example 644]
2. CC[C@H](CC(=O)O)c1ccc(N(CC)C2CCOCC2)c(Nc2ccc(OCC3CC3)cc2)c1 (single isomer, unassigned) [Example 516]
3. CC[C@H](CC(=O)O)c1ccc(N2C[C@@H](C)O[C@@H](C)C2)c(Nc2ccc(Cl)cc2)c1 (single isomer, unassigned) [Example 761]
4. COCC(CC(=O)O)c1ccc(N(CC(C)C)C2CCCCC2)c(NC(=O)Nc2ccc(Cl)cc2F)c1 (racemic) [Example 984]

1: > 7.30; 2: > 8.30; 3: > 7.30; 4: > 8.30

For every item below, please supply its pIC50.
1. COCC(CC(=O)O)c1ccc(N(CC2CC2)C2CCOCC2)c(Nc2ccc(C#N)cc2)c1 (single isomer, unassigned) [Example 687]
2. CCCCc1ccc(NC(=O)Nc2cc(C(CC)CC(=O)O)cc(F)c2N(CC(C)C)CC(C)C)cc1 (racemic) [Example 973]

1. > 7.30
2. > 7.30

For every item below, please supply its pIC50.
1. CCCN(c1ccc([C@@H](COC)CC(=O)O)cc1Nc1ccc(Cl)cc1)C1CCOCC1 (single isomer, unassigned) [Example 564]
2. COCC(CC(=O)O)c1cc(F)c(N(CC(C)C)C2CCCCC2)c(NC(=O)Nc2ccc(OC)cc2F)c1 (single isomer, unassigned) [Example 1152]
3. COCC(CC(=O)O)c1cc(F)c(N(CC(C)C)C2CCCCC2)c(NC(=O)Nc2ccc(C)cc2)c1 (single isomer, unassigned) [Example 1155]
4. CCN(c1ccc(C(CC(=O)O)c2ccccc2)cc1Nc1ccc(C#N)cc1)C1CCOCC1 (single isomer, unassigned) [Example 581]
5. CCC(CC(=O)O)c1ccc(N(CC(C)C)CC(C)C)c(NC(=O)Cc2ccc(C)cc2)c1 (racemic) [Example 949]

1. > 8.30
2. > 8.30
3. > 8.30
4. > 8.30
5. > 8.30
